Where do these numbers come from? They come from patent US20200207782A1.

Reported Residual ratio is given for each of the following compounds.
# protocol_details: Solution stability test (residual ratio and generation of active form in buffers of pH 2.0 to 9.0)
# Format: physicochemical
# test_parameters: pH5.0 buffer, 25° C., 25 umol/L, 9 hr
Where a name gives a salt, the structure may show the parent alone.

{"columns": ["compound", "units_symbol", "Residual ratio"],
 "data": [
  ["CC(=O)c1cc2c(O)c3c(O)cccc3c(OC(=O)NCCCN)c2o1 [Reference Example 9, hydrochloride]", "%", 93.8],
  ["Cc1cc(OC(=O)NCCNCC(=O)O)c2ccccc2c1OC(=O)NCCNCC(=O)O [Example 2, dihydrochloride]", "%", 102],
  ["C[C@H]1COc2c1c(OC(=O)NCCNCC(=O)O)c(OC(=O)NCCNCC(=O)O)c1c3c(ccc21)C(C)(C)CCC3 [Example 12, dihydrochloride]", "%", 97.1],
  ["C[C@H]1COc2c1c(OC(=O)NCCCNCC(=O)O)c(OC(=O)NCCCNCC(=O)O)c1c3c(ccc21)C(C)(C)CCC3 [Example 13, dihydrochloride]", "%", 99.0],
  ["NCCCNC(=O)Oc1c(OC(=O)NCCCN)c(-c2ccccc2)c2c(c1-c1ccccc1)OCO2", "%", 99.6],
  ["CN1CC[C@H](c2c(OC(=O)N(C)CCN)cc(O)c3c(=O)cc(-c4ccccc4Cl)oc23)[C@H](O)C1", "%", 94.4]
]}
